- Experimental system: chimeric M4R (RGLG-2) (Homo sapiens, UniProt P08173)
- Construct: ID; NOs; expressed in transfected cells
- Sequence (P08173 with tags, fused parts or gaps): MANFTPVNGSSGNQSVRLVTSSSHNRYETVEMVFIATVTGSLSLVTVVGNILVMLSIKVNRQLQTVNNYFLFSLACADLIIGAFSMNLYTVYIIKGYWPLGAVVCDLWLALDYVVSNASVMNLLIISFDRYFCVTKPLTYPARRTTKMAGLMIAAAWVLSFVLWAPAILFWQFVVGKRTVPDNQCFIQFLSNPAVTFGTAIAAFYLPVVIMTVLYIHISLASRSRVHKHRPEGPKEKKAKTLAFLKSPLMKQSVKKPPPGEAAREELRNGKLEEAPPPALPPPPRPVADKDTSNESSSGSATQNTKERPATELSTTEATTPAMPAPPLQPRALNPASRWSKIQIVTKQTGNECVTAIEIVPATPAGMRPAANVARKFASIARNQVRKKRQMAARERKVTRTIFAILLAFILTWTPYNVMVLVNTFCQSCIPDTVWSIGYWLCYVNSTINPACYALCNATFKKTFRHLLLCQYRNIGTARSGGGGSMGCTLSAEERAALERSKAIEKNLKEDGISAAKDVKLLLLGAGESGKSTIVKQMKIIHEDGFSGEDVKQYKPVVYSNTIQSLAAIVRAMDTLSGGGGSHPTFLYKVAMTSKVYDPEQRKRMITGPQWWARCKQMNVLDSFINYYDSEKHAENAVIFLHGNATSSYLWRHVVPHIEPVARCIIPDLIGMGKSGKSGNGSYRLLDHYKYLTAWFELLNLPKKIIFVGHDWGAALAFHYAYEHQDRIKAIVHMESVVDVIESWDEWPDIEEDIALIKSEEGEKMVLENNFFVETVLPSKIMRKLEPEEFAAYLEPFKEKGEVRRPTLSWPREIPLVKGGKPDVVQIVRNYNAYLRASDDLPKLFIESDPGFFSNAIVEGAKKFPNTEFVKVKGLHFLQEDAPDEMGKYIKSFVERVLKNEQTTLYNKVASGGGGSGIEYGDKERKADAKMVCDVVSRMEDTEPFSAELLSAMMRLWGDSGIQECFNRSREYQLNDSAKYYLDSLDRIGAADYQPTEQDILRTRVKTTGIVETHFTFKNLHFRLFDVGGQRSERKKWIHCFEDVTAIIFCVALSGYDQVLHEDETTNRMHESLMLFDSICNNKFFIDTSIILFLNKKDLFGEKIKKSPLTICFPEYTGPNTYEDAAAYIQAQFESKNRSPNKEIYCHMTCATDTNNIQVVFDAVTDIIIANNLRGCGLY
- Method summary: BRET assay of the invention, cells co-expressing chimeric M4R (RGLG-2) and FP-Gγ9
- Type: cell-based
- Condition info: activity @ 30uM or 30 ug/ml; in presence of EC80 of Ach; normalized to maximal effect of the orthosteric agonist
Where a name gives a salt, the structure may show the parent alone.
Listed here are compounds together with their documented Invention assay % inh.
// return numeric value only (unit: %, not printed)

Enquiry: // query Invention assay % inh value for entry Nc1c[n+](N2CCOCC2)no1.[Cl-] [SIN-1 chloride]
Return: 6.6

Enquiry: // query Invention assay % inh value for entry CCN1C(=O)C=CC1=O [N-Ethylmaleimide]
Return: 16.5

Enquiry: // query Invention assay % inh value for entry NCCOB(c1ccccc1)c1ccccc1 [2-APB]
Return: 10.5

Enquiry: // query Invention assay % inh value for entry C[C@H]1CCC/C=C/[C@@H]2C[C@H](O)C[C@H]2[C@H](O)/C=C/C(=O)O1 [Brefeldin A]
Return: 12.7

Enquiry: // query Invention assay % inh value for entry COC(=O)c1c(C)[nH]c(C)c1C(=O)c1ccccc1Cc1ccccc1 [FPL 64176]
Return: 10.0

Enquiry: // query Invention assay % inh value for entry COC(=O)C1=C(C)NC(C)=C([N+](=O)[O-])[C@@H]1c1ccccc1C(F)(F)F [(R)-(+)-Bay K 8644]
Return: 11.4

Enquiry: // query Invention assay % inh value for entry CCCCCC(O)/C=C/C=O (centres unmarked) [4-Hydroxynonenal]
Return: 29.9

Enquiry: // query Invention assay % inh value for entry C[C@H](CCC(=O)O)C[C@H](C)C[C@H](C)C(=O)/C=C(\O)[C@H](C)C[C@H](C)C/C=C/[C@@H](C)[C@@H](O)[C@@H](C)[C@@H](O)C[C@@H]1CC[C@@](C)([C@H]2CC[C@@](C)([C@@H](C)O)O2)O1 [Ionomycin calcium salt]
Return: 14.6

###

- Experimental system: M4R (Homo sapiens)
- Construct: expressed in transfected cells
- Sequence (P08173 whole entry): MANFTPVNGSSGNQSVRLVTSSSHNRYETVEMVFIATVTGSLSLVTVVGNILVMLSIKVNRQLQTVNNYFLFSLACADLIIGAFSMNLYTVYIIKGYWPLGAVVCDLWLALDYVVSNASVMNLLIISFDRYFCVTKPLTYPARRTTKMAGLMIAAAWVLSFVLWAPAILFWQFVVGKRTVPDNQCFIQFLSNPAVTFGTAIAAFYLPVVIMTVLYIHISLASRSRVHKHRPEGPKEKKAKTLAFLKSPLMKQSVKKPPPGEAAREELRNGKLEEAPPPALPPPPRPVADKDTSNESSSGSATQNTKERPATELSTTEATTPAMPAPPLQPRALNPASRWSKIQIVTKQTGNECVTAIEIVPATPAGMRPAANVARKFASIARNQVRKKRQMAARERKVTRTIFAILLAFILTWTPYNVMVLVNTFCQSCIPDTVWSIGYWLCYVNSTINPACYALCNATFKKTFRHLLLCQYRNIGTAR
- Method summary: Calcium-based assay, calcium flux in cells co-expressing recombinant M4R and modified Gαq
- Type: cell-based
- Condition info: activity @ 30uM or 30 ug/ml; compound tested alone; normalized to maximal effect of the orthosteric agonist
Structures can show the parent of a compound that is named as a salt.
Label MET for high-side Calcium-based assay % stim (at or above 20%) and NOT MET for low-side Calcium-based assay % stim (below it).

Please review the following examples before continuing.
{"Compound": "CCOC(=O)C1=C(C)NC(=S)NC1c1cccc(O)c1 (centres unmarked)", "Label": "NOT MET"}
{"Compound": "COC(=O)C1=C(C)NC(C)=C([N+](=O)[O-])[C@@H]1c1ccccc1C(F)(F)F [(R)-(+)-Bay K 8644]", "Label": "MET"}

Enquiry: Is reported Calcium-based assay % stim greater than or equal to 20% here: CCCCCC(O)/C=C/C=O (centres unmarked) [4-Hydroxynonenal]
Return: NOT MET

Enquiry: Is reported Calcium-based assay % stim greater than or equal to 20% here: C[C@H](CCC(=O)O)C[C@H](C)C[C@H](C)C(=O)/C=C(\O)[C@H](C)C[C@H](C)C/C=C/[C@@H](C)[C@@H](O)[C@@H](C)[C@@H](O)C[C@@H]1CC[C@@](C)([C@H]2CC[C@@](C)([C@@H](C)O)O2)O1 [Ionomycin calcium salt]
Return: MET

Enquiry: Is reported Calcium-based assay % stim greater than or equal to 20% here: COC(=O)c1c(C)[nH]c(C)c1C(=O)c1ccccc1Cc1ccccc1
Return: MET

Enquiry: Is reported Calcium-based assay % stim greater than or equal to 20% here: COC(=O)C1=C(C)NC(C)=C(C(=O)OC)C1c1ccccc1[N+](=O)[O-]
Return: NOT MET

Enquiry: Is reported Calcium-based assay % stim greater than or equal to 20% here: COC(=O)C1=C(C)NC(C)=C([N+](=O)[O-])[C@H]1c1ccccc1C(F)(F)F [(S)-(−)-Bay K 8644]
Return: NOT MET

Enquiry: Is reported Calcium-based assay % stim greater than or equal to 20% here: Nc1c[n+](N2CCOCC2)no1.[Cl-] [SIN-1 chloride]
Return: NOT MET

###

- Experimental system: chimeric M4R (RGLG-2) (Homo sapiens, UniProt P08173)
- Construct: ID; NOs; expressed in transfected cells
- Method summary: BRET assay of the invention, cells co-expressing chimeric M4R (RGLG-2) and FP-Gγ9
- Assay type: cell-based
- Condition info: activity @ 30uM or 30 ug/ml; in presence of EC80 of Ach; normalized to maximal effect of the orthosteric agonist
- Procedure: The same cells as described for FIG. 10 A were used. […] The decrease of the signal below baseline in the PTX-treated condition confirms a constitutive activity that has been described for the M4R. […] A typical experiment has the following sequence. The assay of the present invention was compared with a state of the art calcium based assay. […] In calcium-based assay, a calcium flux is measured in cells co-expressing recombinant M4R and modified Gαq. […]
Measured metric: Invention assay % inh (%)
// return numeric value only (unit: %, not printed)

{"Molecule": "O=C1Nc2ccc(I)cc2/C1=C/c1cc(Br)c(O)c(Br)c1 [GW 5074]", "Invention assay % inh [%]": 13.5}
{"Molecule": "O=C(N/N=C/c1ccc(O)c(O)c1)c1cc2ccccc2cc1O [Dynamin Inhibitor I]", "Invention assay % inh [%]": "−3.5"}
{"Molecule": "CC[C@H]1/C=C/C=C/C[C@@H](C)[C@H](O)[C@@](C)(O)C(=O)[C@@H](C)[C@H](O)[C@@H](C)C(=O)[C@@H](C)[C@H](O)[C@@H](C)/C=C/C(=O)O[C@@H]2[C@H](C)[C@H](CC1)O[C@]1(CC[C@H](C)[C@H](C[C@@H](C)O)O1)[C@H]2C [Oligomycin]", "Invention assay % inh [%]": 8.5}

Enquiry: // query Invention assay % inh value for entry Cc1ccc2c(c1)C(=O)C1(O)CCN(c3ccccc3)C1=N2 (racemic) [(±)-Blebbistatin]
Return: 13.1

Enquiry: // query Invention assay % inh value for entry COC(=O)C1=C(C)NC(C)=C([N+](=O)[O-])[C@H]1c1ccccc1C(F)(F)F [(S)-(−)-Bay K 8644]
Return: 14.6

Enquiry: // query Invention assay % inh value for entry O=C1OC2(c3ccccc31)c1ccc(O)c(O)c1Oc1c2ccc(O)c1O [Gallein]
Return: 5.3
